# assay.system: Heat shock protein HSP 90-alpha (Homo sapiens, UniProt P07900)
# measurement.notes: Inhibition of FITC-geldanamycin binding to recombinant human full-length C-terminal His-tagged HSP90alpha expressed in Escherichia coli after 3 hrs by fluorescence polarization assay
Below: a set of entries, each annotated with reported IC50.
State just the number; it will be interpreted in nM.

// solved cases for IC50 follow
[
  {
    "compound.string": "CCN(C(=O)c1cc(C(C)C)c(O)cc1O)c1cccc(NC(=O)CCCCCCC(=O)NO)c1",
    "unit.name": "nM",
    "IC50": 146
  },
  {
    "compound.string": "CC(C)c1cc(C(=O)N(C)c2ccc(NC(=O)CCCCCC(=O)NO)cc2)c(O)cc1O",
    "unit.name": "nM",
    "IC50": 169
  },
  {
    "compound.string": "CC(C)c1cc(C(=O)N(C)c2ccc(NC(=O)CCCCCCC(=O)NO)cc2)c(O)cc1O",
    "unit.name": "nM",
    "IC50": 153
  },
  {
    "compound.string": "CC(C)c1cc(C(=O)N(C)c2ccc(NC(=O)CCCCCCCC(=O)NO)cc2)c(O)cc1O",
    "unit.name": "nM",
    "IC50": 77.2
  },
  {
    "compound.string": "CCN(C(=O)c1cc(C(C)C)c(O)cc1O)c1ccc(NC(=O)CCCCCCC(=O)NO)cc1",
    "unit.name": "nM",
    "IC50": 186
  }
]

Then there is this compound:
So what's the measured IC50 for this one? CC(C)c1cc(C(=O)N(C)c2cccc(NC(=O)CCCCCCC(=O)NO)c2)c(O)cc1O 302
